The compounds listed here are annotated with their log10 IC50.
tgt: UniProt:Q7ZJM1
test description: Inhibition of HIV1 recombinant integrase expressed in Escherichia coli using [32P]-labeled oligonucleotide as substrate after 60 mins by strand transfer activity assay
recorded metric: log10 IC50 (log10 of the value in µM)

[[record]]
cpd_smiles = "CCNc1[nH]c(=O)n(O)c(=O)c1C(=O)NCc1ccc(Cl)c(F)c1"
recorded_value = -0.92

[[record]]
cpd_smiles = "O=C(NCc1ccc(F)cc1)c1c2n(c(=O)n(O)c1=O)CCCN2"
recorded_value = -0.37

[[record]]
cpd_smiles = "CC(C)Nc1[nH]c(=O)n(O)c(=O)c1C(=O)NCc1ccccc1"
recorded_value = -0.82

[[record]]
cpd_smiles = "O=C(NCc1ccccc1)c1c(NC2CC2)[nH]c(=O)n(O)c1=O"
recorded_value = -0.68

[[record]]
cpd_smiles = "CCNc1[nH]c(=O)n(O)c(=O)c1C(=O)Nc1ccccc1"
recorded_value = 1.54

[[record]]
cpd_smiles = "CCNc1[nH]c(=O)n(O)c(=O)c1C(=O)NCc1ccc(C)c(F)c1"
recorded_value = -1.29


* * *

tgt: Human immunodeficiency virus type 1 reverse transcriptase (Human immunodeficiency virus 1, UniProt Q72547)
pIC50: −log10 of the molar value.
recorded metric: pIC50

[[record]]
cpd_smiles = "CCNc1[nH]c(=O)n(O)c(=O)c1C(=O)NCc1ccc(F)c(F)c1"
recorded_value = 7.59

[[record]]
cpd_smiles = "CCNc1[nH]c(=O)n(O)c(=O)c1C(=O)NCc1ccccc1"
recorded_value = 7.38

[[record]]
cpd_smiles = "CCNc1[nH]c(=O)n(O)c(=O)c1C(=O)NCc1ccc(F)cc1F"
recorded_value = 8.00

[[record]]
cpd_smiles = "CNc1[nH]c(=O)n(O)c(=O)c1C(=O)NCc1ccccc1"
recorded_value = 7.21

[[record]]
cpd_smiles = "CCNc1[nH]c(=O)n(O)c(=O)c1C(=O)NCc1cccc(Cl)c1F"
recorded_value = 7.54

[[record]]
cpd_smiles = "CCNc1[nH]c(=O)n(O)c(=O)c1C(=O)NCc1ccc(F)cc1"
recorded_value = 7.96

[[record]]
cpd_smiles = "CCNc1[nH]c(=O)n(O)c(=O)c1C(=O)NCc1ccc(Cl)c(F)c1"
recorded_value = 7.66

[[record]]
cpd_smiles = "CCNc1[nH]c(=O)n(O)c(=O)c1C(=O)NCc1ccc(C)c(F)c1"
recorded_value = 7.70


* * *

Tested on: Human immunodeficiency virus 1
test description: Antiviral activity against HIV1 3B infected in human CEM-SS cells assessed as reduction of virus-induced cytopathic effect after 6 days by MTS assay
Assay type: functional, organism-based
assay conditions: Human immunodeficiency virus 1, 3B, 144 h
recorded metric: EC50 (nM)

[[record]]
cpd_smiles = "CCNc1[nH]c(=O)n(O)c(=O)c1C(=O)NCc1ccc(F)cc1F"
recorded_value = 32

[[record]]
cpd_smiles = "CCNc1[nH]c(=O)n(O)c(=O)c1C(=O)NCc1ccc(Cl)c(F)c1"
recorded_value = 190

[[record]]
cpd_smiles = "CNc1[nH]c(=O)n(O)c(=O)c1C(=O)NCc1ccccc1"
recorded_value = 830

[[record]]
cpd_smiles = "CCNc1[nH]c(=O)n(O)c(=O)c1C(=O)NCc1ccc(F)cc1"
recorded_value = 33

[[record]]
cpd_smiles = "CCNc1[nH]c(=O)n(O)c(=O)c1C(=O)NCc1ccccc1"
recorded_value = 61

[[record]]
cpd_smiles = "CCNc1[nH]c(=O)n(O)c(=O)c1C(=O)NCc1ccc(C)c(F)c1"
recorded_value = 150

[[record]]
cpd_smiles = "CCNc1[nH]c(=O)n(O)c(=O)c1C(=O)NCc1ccc(F)c(F)c1"
recorded_value = 49

[[record]]
cpd_smiles = "CCNc1[nH]c(=O)n(O)c(=O)c1C(=O)NCc1cccc(Cl)c1F"
recorded_value = 15


* * *

test description: Plasma protein binding in human
Format: ADME, cell-free
recorded metric: PPB (%)

[[record]]
cpd_smiles = "CCNc1[nH]c(=O)n(O)c(=O)c1C(=O)NCc1ccccc1"
recorded_metric = "PPB"
recorded_value = 99.1

[[record]]
cpd_smiles = "CCNc1[nH]c(=O)n(O)c(=O)c1C(=O)NCc1ccc(C)c(F)c1"
recorded_metric = "PPB"
recorded_value = 98.9

[[record]]
cpd_smiles = "CCNc1[nH]c(=O)n(O)c(=O)c1C(=O)NCc1ccc(F)cc1"
recorded_metric = "PPB"
recorded_value = 99.4

[[record]]
cpd_smiles = "CCNc1[nH]c(=O)n(O)c(=O)c1C(=O)NCc1cccc(Cl)c1F"
recorded_metric = "PPB"
recorded_value = 98.4

[[record]]
cpd_smiles = "CNc1[nH]c(=O)n(O)c(=O)c1C(=O)NCc1ccccc1"
recorded_metric = "PPB"
recorded_value = 99.2


* * *

Parameter selectivity ratio: see the listing below.
test description: Therapeutic index, ratio of CC50 for human CEM-SS cells to EC50 for HIV1 3B infected in human CEM-SS cells
Type: toxicity, cell-based
assay conditions: read-out: Ratio CC50/EC50
recorded metric: selectivity ratio

[[record]]
cpd_smiles = "CCNc1[nH]c(=O)n(O)c(=O)c1C(=O)NCc1ccc(F)cc1F"
recorded_metric = "selectivity ratio"
recorded_value = 1500

[[record]]
cpd_smiles = "CCNc1[nH]c(=O)n(O)c(=O)c1C(=O)NCc1ccc(F)cc1"
recorded_metric = "selectivity ratio"
recorded_value = 580

[[record]]
cpd_smiles = "CCNc1[nH]c(=O)n(O)c(=O)c1C(=O)NCc1ccccc1"
recorded_metric = "selectivity ratio"
recorded_value = 380

[[record]]
cpd_smiles = "CNc1[nH]c(=O)n(O)c(=O)c1C(=O)NCc1ccccc1"
recorded_metric = "selectivity ratio"
recorded_value = 70

[[record]]
cpd_smiles = "CCNc1[nH]c(=O)n(O)c(=O)c1C(=O)NCc1cccc(Cl)c1F"
recorded_metric = "selectivity ratio"
recorded_value = 1200

[[record]]
cpd_smiles = "CCNc1[nH]c(=O)n(O)c(=O)c1C(=O)NCc1ccc(C)c(F)c1"
recorded_metric = "selectivity ratio"
recorded_value = 130

[[record]]
cpd_smiles = "CCNc1[nH]c(=O)n(O)c(=O)c1C(=O)NCc1ccc(F)c(F)c1"
recorded_metric = "selectivity ratio"
recorded_value = 430


* * *

tgt: Human immunodeficiency virus type 1 integrase (Human immunodeficiency virus 1)
Sequence (Q7ZJM1 whole entry): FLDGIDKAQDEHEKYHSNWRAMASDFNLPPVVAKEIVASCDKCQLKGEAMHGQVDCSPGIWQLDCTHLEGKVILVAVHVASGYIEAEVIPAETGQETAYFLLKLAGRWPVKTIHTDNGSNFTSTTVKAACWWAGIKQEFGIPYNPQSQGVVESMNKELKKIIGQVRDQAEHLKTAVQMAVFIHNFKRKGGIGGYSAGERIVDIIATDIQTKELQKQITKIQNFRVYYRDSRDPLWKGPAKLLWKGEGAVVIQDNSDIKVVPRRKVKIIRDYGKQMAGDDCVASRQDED
test description: Inhibition of HIV1 recombinant integrase expressed in Escherichia coli using [32P]-labeled oligonucleotide as substrate after 60 mins by strand transfer activity assay
pIC50: −log10 of the molar value.
recorded metric: pIC50

[[record]]
cpd_smiles = "CCNc1c(C(=O)NCc2ccc(F)cc2)c(=O)n(O)c(=O)n1C"
sign_qualifier = "<"
recorded_value = 4.00

[[record]]
cpd_smiles = "CNc1[nH]c(=O)n(O)c(=O)c1C(=O)NCc1ccc(F)cc1"
sign_qualifier = "="
recorded_value = 6.96

[[record]]
cpd_smiles = "O=C(NCc1ccccc1)c1c(Nc2ccc(-c3ccccc3)cc2)[nH]c(=O)n(O)c1=O"
sign_qualifier = "<"
recorded_value = 4.00

[[record]]
cpd_smiles = "CCNc1[nH]c(=O)n(O)c(=O)c1C(=O)NCc1ccc(F)cc1"
sign_qualifier = "="
recorded_value = 7.31

[[record]]
cpd_smiles = "CCNc1[nH]c(=O)n(O)c(=O)c1C(=O)NCc1cc(F)ccc1Cl"
sign_qualifier = "="
recorded_value = 7.02

[[record]]
cpd_smiles = "CCNc1[nH]c(=O)n(O)c(=O)c1C(N)=O"
sign_qualifier = "<"
recorded_value = 4.00

[[record]]
cpd_smiles = "CNc1[nH]c(=O)n(O)c(=O)c1C(=O)NCc1ccccc1"
sign_qualifier = "="
recorded_value = 7.10

[[record]]
cpd_smiles = "CCNc1[nH]c(=O)n(O)c(=O)c1C(=O)NCc1cc(F)ccc1F"
sign_qualifier = "="
recorded_value = 7.17

[[record]]
cpd_smiles = "O=C(NCc1ccccc1)c1c(Nc2ccccc2)[nH]c(=O)n(O)c1=O"
sign_qualifier = "<"
recorded_value = 4.00

[[record]]
cpd_smiles = "CCNc1[nH]c(=O)n(O)c(=O)c1C(=O)NCc1ccccc1"
sign_qualifier = "="
recorded_value = 7.48

[[record]]
cpd_smiles = "CCNc1[nH]c(=O)n(O)c(=O)c1C(=O)Oc1ccccc1"
sign_qualifier = "<"
recorded_value = 4.00

[[record]]
cpd_smiles = "CC(C)(C)Nc1[nH]c(=O)n(O)c(=O)c1C(=O)NCc1ccccc1"
sign_qualifier = "="
recorded_value = 7.09

[[record]]
cpd_smiles = "Nc1[nH]c(=O)n(O)c(=O)c1C(=O)NCc1ccccc1"
sign_qualifier = "="
recorded_value = 6.05

[[record]]
cpd_smiles = "CCNc1[nH]c(=O)n(O)c(=O)c1C(=O)NCCc1ccccc1"
sign_qualifier = "="
recorded_value = 7.00

